Target: UniProt P25101
Sequence (whole entry): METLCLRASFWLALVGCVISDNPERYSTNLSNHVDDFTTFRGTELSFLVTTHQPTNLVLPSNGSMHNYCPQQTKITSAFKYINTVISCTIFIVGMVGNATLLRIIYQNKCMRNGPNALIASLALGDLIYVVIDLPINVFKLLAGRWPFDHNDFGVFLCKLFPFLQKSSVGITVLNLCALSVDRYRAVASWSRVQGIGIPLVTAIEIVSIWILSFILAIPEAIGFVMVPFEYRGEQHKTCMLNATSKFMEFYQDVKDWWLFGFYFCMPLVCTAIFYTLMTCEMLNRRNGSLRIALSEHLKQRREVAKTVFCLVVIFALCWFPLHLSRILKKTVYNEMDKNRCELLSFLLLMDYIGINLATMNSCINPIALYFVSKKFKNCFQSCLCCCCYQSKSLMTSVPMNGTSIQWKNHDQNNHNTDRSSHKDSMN
Assay: Competitive binding to Endothelin A receptor by displacement of [125I]ET1 (Relative IC50 was calculated as IC50 of compound/IC50 of TBC11251)
Readout Label: Relative ET-A IC50

Solved cases below.
Smiles Repr: Cc1cc(C)c(CC(=O)c2sccc2S(=O)(=O)Nc2onc(C)c2Cl)c(C)c1O
Target Of Assay: UniProt P25101
Relative ET-A IC50: 0.08
//
Smiles Repr: Cc1cc(C)c(N2CCCC2)c(C)c1NC(=O)c1sccc1S(=O)(=O)Nc1onc(C)c1Cl
Target Of Assay: UniProt P25101
Relative ET-A IC50: 0.15
//
Smiles Repr: Cc1cc(C)c(NC(=O)c2sccc2S(=O)(=O)Nc2onc(C)c2Cl)c(C)c1O
Target Of Assay: UniProt P25101
Relative ET-A IC50: 0.11
//
Smiles Repr: COC(=O)c1cc(C)cc(C)c1NC(=O)c1sccc1S(=O)(=O)Nc1onc(C)c1Cl
Target Of Assay: UniProt P25101
Relative ET-A IC50: 0.16
//
Smiles Repr: Cc1cc2c(cc1CC(=O)c1sccc1S(=O)(=O)Nc1onc(C)c1Cl)OCO2
Target Of Assay: UniProt P25101
Relative ET-A IC50: 1

[Q] Would you kindly share the measured Relative ET-A IC50 for Cc1cc(C)c(NC(=O)c2sccc2S(=O)(=O)Nc2onc(C)c2C)c(C)c1CC#N ?
[A] 0.1

[Q] Would you kindly share the measured Relative ET-A IC50 for Cc1cc(C)c(OCC2CC2)c(C)c1NC(=O)c1sccc1S(=O)(=O)Nc1onc(C)c1Cl ?
[A] 0.07

[Q] Would you kindly share the measured Relative ET-A IC50 for Cc1cc(C)c(NC(=O)c2sccc2S(=O)(=O)Nc2onc(C)c2Cl)c(C)c1COC(=S)N(C)C ?
[A] 0.21

[Q] Would you kindly share the measured Relative ET-A IC50 for Cc1cc(C)c(NC(=O)c2sccc2S(=O)(=O)Nc2onc(C)c2Cl)c(C)c1CC#N ?
[A] 0.08

// data source = ChEMBL document CHEMBL1132155
